# System: 377384-186-R-J1-PDC complex spheroid viability
# assayMethodText: Anticancer human tumor 377384-186-R-J1-PDC patient-derived pancreatic carcinoma cell line growth inhibition [RAS]
# conditionLabel: second compound 0.0949 µM; first compound 0.316 µM; hits give low values
Readings of viability, T/C for the listed compounds

// worked examples, viability, T/C included
{"compound": "O=C(c1ccc(F)c(F)c1Nc1ccc(I)cc1F)N1CC(O)([C@@H]2CCCCN2)C1 + CCn1c(-c2cccnc2C(C)OC)c2c3cc(ccc31)N1CCOC(CC(NC(=O)C(C(C)C)N(C)C(=O)C3(F)CCN(C(=O)C#CC(C)(C)N(C)C)CC3)C(=O)N3CCCC(N3)C(=O)OCC(C)(C)C2)C1", "testedSystem": "377384-186-R-J1-PDC complex spheroid viability", "viability, T/C": "1.32%"}
{"compound": "CC(=O)OC12COC1CC(O)C1(C)C(=O)C(O)C3=C(C)C(OC(=O)C(O)C(NC(=O)OC(C)(C)C)c4ccccc4)CC(O)(C(OC(=O)c4ccccc4)C21)C3(C)C (centres undefined) + CCn1c(-c2cccnc2C(C)OC)c2c3cc(ccc31)N1CCOC(CC(NC(=O)C(C(C)C)N(C)C(=O)C3(F)CCN(C(=O)C#CC(C)(C)N(C)C)CC3)C(=O)N3CCCC(N3)C(=O)OCC(C)(C)C2)C1", "testedSystem": "377384-186-R-J1-PDC complex spheroid viability", "viability, T/C": "12.3%"}
{"compound": "CC1(O)CCCC1n1c(=O)c(C(F)F)cc2cnc(NC3CCN(S(C)(=O)=O)CC3)nc21 (centres undefined) + CCn1c(-c2cccnc2C(C)OC)c2c3cc(ccc31)N1CCOC(CC(NC(=O)C(C(C)C)N(C)C(=O)C3(F)CCN(C(=O)C#CC(C)(C)N(C)C)CC3)C(=O)N3CCCC(N3)C(=O)OCC(C)(C)C2)C1", "testedSystem": "377384-186-R-J1-PDC complex spheroid viability", "viability, T/C": "23.9%"}

Reported viability, T/C for 377384-186-R-J1-PDC complex spheroid viability, given Nc1ccn(C2OC(CO)C(O)C2(F)F)c(=O)n1 (centres undefined) + CCn1c(-c2cc(N3CCN(C)CC3)cnc2C(C)OC)c2c3cc(ccc31)-c1csc(n1)CC(NC(=O)C1CC1C)C(=O)N1CCCC(N1)C(=O)OCC(C)(C)C2 ? 1.92%

* * *

# Test system: 377384-186-R-J1-PDC complex spheroid viability
# assayMethodText: Anticancer human tumor 377384-186-R-J1-PDC cell line growth inhibition [RAS]; active = viability on the fitted dose curve at most 10% of control; inactive = the rest;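 further: spheroids exposed to compounds for seven days before readout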
# conditionLabel: second compound 0.03 µM; first compound 0.03 µM
Outcome (select one): yes (active), no (inactive)

Sample answers from the record:
{"molecule": "CC1(C)CCC(Nc2ncc(C(F)(F)F)c(-c3c[nH]c4c(P(C)(C)=O)c(C#N)ccc34)n2)CN1 (centres undefined) + CCn1c(-c2cccnc2C(C)OC)c2c3cc(ccc31)N1CCOC(CC(NC(=O)C(C(C)C)N(C)C(=O)C3(F)CCN(C(=O)C#CC(C)(C)N(C)C)CC3)C(=O)N3CCCC(N3)C(=O)OCC(C)(C)C2)C1", "labelValue": "no"}
{"molecule": "CCc1c2c(nc3ccc(O)cc13)-c1cc3c(c(=O)n1C2)COC(=O)[C@]3(O)CC + CCn1c(-c2cccnc2C(C)OC)c2c3cc(ccc31)N1CCOC(CC(NC(=O)C(C(C)C)N(C)C(=O)C3(F)CCN(C(=O)C#CC(C)(C)N(C)C)CC3)C(=O)N3CCCC(N3)C(=O)OCC(C)(C)C2)C1", "labelValue": "yes"}
{"molecule": "CC1(C)CCC(Nc2ncc(C(F)(F)F)c(-c3c[nH]c4c(P(C)(C)=O)c(C#N)ccc34)n2)CN1 (centres undefined) + CCn1c(-c2cc(N3CCN(C)CC3)cnc2C(C)OC)c2c3cc(ccc31)-c1csc(n1)CC(NC(=O)C1CC1C)C(=O)N1CCCC(N1)C(=O)OCC(C)(C)C2", "labelValue": "yes"}

Here's the next entry for you.
Please state the recorded outcome for this molecule: CCc1c2c(nc3ccc(O)cc13)-c1cc3c(c(=O)n1C2)COC(=O)[C@]3(O)CC + CCn1c(-c2cc(N3CCN(C)CC3)cnc2C(C)OC)c2c3cc(ccc31)-c1csc(n1)CC(NC(=O)C1CC1C)C(=O)N1CCCC(N1)C(=O)OCC(C)(C)C2 yes
